# protocolSummary: Solubility (Solubilités) in water and dimethyl sulfoxide
# Format: physicochemical
# experimentalSetup: diméthylsulfoxyde
property: solubility in dimethyl sulfoxide (%)

CC(C)(C)NCC(O)COC1Cc2ccccc2C1 (stereo not shown) : 10
CC(C)NCC(O)COCc1cccc2ccccc12 (stereo not shown) : 8
Cc1cccc(COCC(O)CNC(C)C)c1 (stereo not shown) : 15
CC(C)(C)NCC(O)COCCCc1ccccc1 (stereo not shown) : 15
COc1ccccc1COCC(O)CNC(C)C (stereo not shown) : 15
Cc1cccc(COCC(O)CNC(C)(C)C)c1 (stereo not shown) : 10
COc1ccc(COCC(O)CNC(C)(C)C)cc1 (stereo not shown) : 20
CC(C)NCC(O)COCCCc1ccccc1 (stereo not shown) : 12
COc1ccccc1COCC(O)CNC(C)(C)C (stereo not shown) : 15
CC(C)(C)NCC(O)COCc1cccc(OCc2ccccc2)c1 (stereo not shown) : 20
CC(C)(C)NCC(O)COC/C=C/c1ccccc1 (stereo not shown) : 15
COc1cccc(COCC(O)CNC(C)(C)C)c1 (stereo not shown) : 12
CC(C)(C)NCC(O)COCc1cccc2ccccc12 (stereo not shown) : 15
